Give measured plasma membrane CFTR intensity for each item. Keep answers brief.
Target: Cystic fibrosis transmembrane conductance regulator (Homo sapiens) (UniProt P13569)
Sequence (P13569 whole entry, looked up, stated change not applied): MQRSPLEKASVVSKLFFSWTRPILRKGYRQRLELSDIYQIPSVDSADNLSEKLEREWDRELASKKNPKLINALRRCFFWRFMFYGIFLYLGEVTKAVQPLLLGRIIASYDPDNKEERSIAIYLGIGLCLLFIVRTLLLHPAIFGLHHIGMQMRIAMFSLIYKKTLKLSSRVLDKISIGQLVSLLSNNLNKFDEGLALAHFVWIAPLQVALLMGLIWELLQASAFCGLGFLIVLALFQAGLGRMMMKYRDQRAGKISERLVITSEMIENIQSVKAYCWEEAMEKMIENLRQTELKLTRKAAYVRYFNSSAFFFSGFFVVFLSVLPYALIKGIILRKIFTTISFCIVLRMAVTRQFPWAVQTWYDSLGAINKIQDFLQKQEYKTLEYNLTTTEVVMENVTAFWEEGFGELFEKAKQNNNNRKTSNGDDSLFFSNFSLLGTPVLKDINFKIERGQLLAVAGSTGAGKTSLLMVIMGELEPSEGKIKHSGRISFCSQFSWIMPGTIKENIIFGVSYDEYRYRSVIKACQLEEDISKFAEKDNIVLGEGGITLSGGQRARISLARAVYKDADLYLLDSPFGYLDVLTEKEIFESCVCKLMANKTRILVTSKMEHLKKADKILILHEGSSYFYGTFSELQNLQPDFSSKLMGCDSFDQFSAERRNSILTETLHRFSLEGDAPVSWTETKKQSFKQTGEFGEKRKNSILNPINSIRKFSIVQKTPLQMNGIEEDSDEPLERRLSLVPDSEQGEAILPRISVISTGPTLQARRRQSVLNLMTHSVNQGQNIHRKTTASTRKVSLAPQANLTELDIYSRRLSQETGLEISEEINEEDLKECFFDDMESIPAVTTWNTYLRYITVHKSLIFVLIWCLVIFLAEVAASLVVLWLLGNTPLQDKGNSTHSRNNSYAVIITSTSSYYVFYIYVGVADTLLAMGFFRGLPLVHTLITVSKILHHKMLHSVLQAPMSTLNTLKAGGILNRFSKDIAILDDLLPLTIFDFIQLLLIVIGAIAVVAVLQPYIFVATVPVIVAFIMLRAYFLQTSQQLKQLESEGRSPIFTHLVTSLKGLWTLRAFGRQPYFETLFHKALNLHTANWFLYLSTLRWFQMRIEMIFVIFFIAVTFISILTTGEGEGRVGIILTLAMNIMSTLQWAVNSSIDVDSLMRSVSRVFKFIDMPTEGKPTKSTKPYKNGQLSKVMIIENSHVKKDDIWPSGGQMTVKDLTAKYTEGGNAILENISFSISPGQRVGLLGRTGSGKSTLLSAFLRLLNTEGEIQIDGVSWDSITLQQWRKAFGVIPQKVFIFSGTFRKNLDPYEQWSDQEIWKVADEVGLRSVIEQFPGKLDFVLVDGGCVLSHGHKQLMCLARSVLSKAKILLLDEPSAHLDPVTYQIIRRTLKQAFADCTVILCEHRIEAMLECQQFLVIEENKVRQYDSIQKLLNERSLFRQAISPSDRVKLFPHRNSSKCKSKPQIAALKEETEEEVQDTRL
Assay: F508del-CFTR plasma membrane relocalization enhancers – imaging, HeLa, high-content microscopy, immunofluorescence, primary screen (AID 1224864);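 note: HeLa cells stably expressing F508del-CFTR stained with 3G11 antibody against NBD1; mean immunofluorescence in a thin cell-margin band taken as plasma membrane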
Conditions: PM immunofluorescence imaging, 24 h, at 10 µM, stronger effect = higher value, relative to vehicle wells set at 100
In all, about 2,000 compounds went through this assay and about 20 (1%) were called active. Shown is part of a subset that was picked to be rich in actives.
Answers are plain numbers, in %.

> print(dat)
                                   compound                               test.target                 recorded.metric  observed.value
1  CC(=O)NC(Cc1ccccc1)C(=O)OCC(=O)c1ccccc1 (stereo not given)  Cystic fibrosis transmembrane conductance regulator (Homo sapiens) (UniProt P13569)  plasma membrane CFTR intensity              77
2     CCC(CO)NCCNC(CC)CO (stereo not given)  Cystic fibrosis transmembrane conductance regulator (Homo sapiens) (UniProt P13569)  plasma membrane CFTR intensity              86
3  O=C(CN1C(=O)c2ccccc2C1=O)Nc1cccc([N+](=O)[O-])c1  Cystic fibrosis transmembrane conductance regulator (Homo sapiens) (UniProt P13569)  plasma membrane CFTR intensity              90
4  COc1ccc2c(c1OC)C(=O)NC(C)=C(C(=O)OC(C)(C)C)C2O (stereo not given)  Cystic fibrosis transmembrane conductance regulator (Homo sapiens) (UniProt P13569)  plasma membrane CFTR intensity              87

Value lookup for plasma membrane CFTR intensity; key = Cc1cccc(-c2ncc(CN3CCN(CC(C)C)C(CCO)C3)cn2)c1 (stereo not given)
80

###

I'd appreciate it if you could supply plasma membrane CFTR intensity values for the items below.
Target: Cystic fibrosis transmembrane conductance regulator (Homo sapiens) (UniProt P13569)
Test: F508del-CFTR plasma membrane relocalization enhancers – imaging, HeLa, high-content microscopy, immunofluorescence, primary screen (AID 1224864);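 note: HeLa cells stably expressing F508del-CFTR stained with 3G11 antibody against NBD1; mean immunofluorescence in a thin cell-margin band taken as plasma membrane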
Settings: PM immunofluorescence imaging, 24 h, at 10 µM, stronger effect = higher value, relative to vehicle wells set at 100
The whole screen tested about 2,000 compounds, of which about 20 (1%) were called active. The sample holds actives, similar compounds and a random draw of the others, so the mix is not that of the screen.
Give bare numbers, in %.

Example entries and their recorded answers appear below.
> print(dat)
                                    compound                 recorded.metric  observed.value
 1      CN(CCCN1CCOCC1)Cc1cn(C)nc1-c1ccccc1F  plasma membrane CFTR intensity              84
 2  FC(F)(F)c1ccc(-c2noc(CN3CCCN(C4CCCCC4)CC3)n2)cc1  plasma membrane CFTR intensity              95
 3    CCN(CC)CCNc1ccc(CO)c2sc3ccccc3c(=O)c12  plasma membrane CFTR intensity             207
 4  CC1CCCc2sc3ncn(N)c(=N)c3c21 (stereo not drawn)  plasma membrane CFTR intensity              71
 5  CCOc1ccc(C(=O)NC(C)C2COc3ccccc3O2)cc1 (stereo not drawn)  plasma membrane CFTR intensity              82
 6  Cc1cccc(CN2CCN(C(c3ccccc3)c3ccc(Cl)cc3)CC2)c1 (stereo not drawn)  plasma membrane CFTR intensity              92
 7             Cc1ccc2c(c1)c1c(n2C)C(=O)CCC1  plasma membrane CFTR intensity              76
 8  C[C@]12CC[C@@H]3c4ccc(O)cc4CC[C@H]3[C@@H]1CC[C@@H]2OC(=O)CCC(=O)O  plasma membrane CFTR intensity              78
 9        Cn1c(=O)c2c(ncn2Cc2ccccc2)n(C)c1=O  plasma membrane CFTR intensity              81
10        CC(C)(C)C(=O)NC(=S)NNC(=O)c1ccncc1  plasma membrane CFTR intensity              94

For each of the items listed, what is its plasma membrane CFTR intensity?
1. O=C(NNC(=O)c1cccs1)c1ccco1
2. O[C@@H](CNC[C@H](O)c1ccccc1)c1ccccc1
3. C=CCNc1nc2c(c(=O)n(C)c(=O)n2C)n1CC(=C)C

1. 93
2. 90
3. 82
